meta.source: patent US9751853B2

assay: Solubility by HPLC; assay type: physicochemical; details: thermodynamic from solid; Water, room temperature, 24 hr
metric: solubility at 24 h (µg/mL)
Give the value, in units of µg/mL, as a plain number.

stdin: Looking for the measured solubility at 24 h of Cc1nc2cccc(N)c2c(=O)n1C1CCC(=O)NC1=O.Cl (stereo not shown) [Form A1] , can you help?
stdout: 1710

* * *

Experiment: Solubility by HPLC
Assay type: physicochemical
Details: saline or isotonic, thermodynamic from solid; 0.9% NaCl, room temperature, 24 hr
Protocol: Solubility by HPLC: Solubility of Form A in selected aqueous and organic solvents was determined by mixing solid with solvents at room temperature. The samples were filtered after 24 hr of agitation and quantified by an HPLC method, except for DMSO, for which the solubility was measured after 1 hr of agitation.
metric: solubility at 24 h (mg/mL)
Give the value, in units of mg/mL, as a plain number.

stdin: Looking for the measured solubility at 24 h of Cc1nc2cccc(N)c2c(=O)n1C1CCC(=O)NC1=O.Cl (stereo not shown) [Form A1] , can you help?
stdout: 1.9

* * *

assay: Solubility by HPLC; assay type: physicochemical; conditions: organic solvent or mixture, thermodynamic from solid; Dimethyl Sulfoxide (DMSO), room temperature, 1 hr of agitation
metric: solubility at 1 h (mg/mL)
Give the value, in units of mg/mL, as a plain number.

stdin: Looking for the measured solubility at 1 h of Cc1nc2cccc(N)c2c(=O)n1C1CCC(=O)NC1=O.Cl (stereo not shown) [Form A1] , can you help?
stdout: 21.9

* * *

test: Solubility by HPLC; assay type: physicochemical; conditions: organic solvent or mixture, thermodynamic from solid; Acetonitrile (AcCN), room temperature, 24 hr
metric: solubility at 24 h
Put your answer as a value accompanied by its unit after it.

stdin: Looking for the measured solubility at 24 h of Cc1nc2cccc(N)c2c(=O)n1C1CCC(=O)NC1=O.Cl (stereo not shown) [Form A1] , can you help?
stdout: 20 µg/mL

* * *

assay: Solubility by HPLC; format: physicochemical; conditions: organic solvent or mixture, thermodynamic from solid; Toluene, room temperature, 24 hr
metric: solubility at 24 h

stdin: Looking for the measured solubility at 24 h of Cc1nc2cccc(N)c2c(=O)n1C1CCC(=O)NC1=O.Cl (stereo not shown) [Form A1] , can you help?
stdout: < 5 µg/mL

* * *

assay: Solubility by HPLC; assay type: physicochemical; conditions: aqueous buffer, thermodynamic from solid; Acetate buffer (pH 4.0), room temperature, 24 hr
metric: solubility at 24 h (µg/mL)
Give the value, in units of µg/mL, as a plain number.

stdin: Looking for the measured solubility at 24 h of Cc1nc2cccc(N)c2c(=O)n1C1CCC(=O)NC1=O.Cl (stereo not shown) [Form A1] , can you help?
stdout: 310

* * *

Test: Approximate solubility in test solvents (visual/gravimetric)
Format: physicochemical
Conditions: organic solvent or mixture, thermodynamic from solid; MeOH, about 25° C.; read-out: approximate solubility
Experimental: Solubility: A weighed sample of Compound A hydrochloride (about 50 mg) was treated with a known volume of a test solvent. The solvents used were either reagent or HPLC grade. The resulting mixture was agitated for at least 24 hours at about 25° C. If all of the solids appeared to be dissolved by visual inspection, the estimated solubilities were calculated based on the total volume of solvent used to give a complete solution. […] If solids were present, the solubility was measured gravimetrically. […]
metric: solubility

stdin: Looking for the measured solubility of Cc1nc2cccc(N)c2c(=O)n1C1CCC(=O)NC1=O.Cl (stereo not shown) [Form A1] , can you help?
stdout: 3000 to 10000 µg/mL
